Consider the following compounds and their measured inhibition readings.
Target: Phosphatidylinositol 4-kinase beta (Homo sapiens);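 note: values given are mean percent inhibition of PI4K-beta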
Details: at 0.1 µM
Provide a numeric answer, followed by its unit.

Before answering, review these 5 worked examples.
{"molecule": "Nc1nc(-c2cccc(Cl)c2)c(-c2ccc3ncccc3n2)s1", "system_under_test": "Phosphatidylinositol 4-kinase beta (Homo sapiens)", "inhibition": "0.45%"}
{"molecule": "COc1ccc(-c2oc3ncnc(N)c3c2-c2ccc(NC(=O)Nc3cc(C(F)(F)F)ccc3F)cc2)cc1", "system_under_test": "Phosphatidylinositol 4-kinase beta (Homo sapiens)", "inhibition": "6.88%"}
{"molecule": "COC(=O)Nc1nc2ccc(Oc3ccc(NC(=O)Nc4cccc(Cl)c4)cc3)cc2[nH]1", "system_under_test": "Phosphatidylinositol 4-kinase beta (Homo sapiens)", "inhibition": "3.19%"}
{"molecule": "CCn1cc(-c2ccnc3[nH]ccc23)c(-c2cccc(NC(=O)Nc3ccc(OCc4ccccc4)cc3)c2)n1", "system_under_test": "Phosphatidylinositol 4-kinase beta (Homo sapiens)", "inhibition": "2.47%"}
{"molecule": "CC(=O)NCc1cccc(C#Cc2cncnc2Nc2ccc(OCc3cccc(F)c3)c(Cl)c2)c1", "system_under_test": "Phosphatidylinositol 4-kinase beta (Homo sapiens)", "inhibition": "-4.32%"}

Returns the measured inhibition for the input compound. Input: CNC(=O)c1cc(-c2ccc(F)cc2)cc(-c2ccc(S(=O)(=O)N3CCCC3)cc2)c1N
-2.09%

Returns the measured inhibition for the input compound. Input: COc1ccc(-c2cc3c(N)ncnc3o2)cc1
-0.47%

Returns the measured inhibition for the input compound. Input: CCc1nn2ncccc2c1-c1ccnc(NC2CC2)n1
5.11%

Returns the measured inhibition for the input compound. Input: CCN1CCC(CC(=O)Nc2n[nH]c3nnc(-c4cccc(F)c4F)cc23)CC1
2.58%

Returns the measured inhibition for the input compound. Input: CCn1c(-c2nonc2N)nc2c(C#CC(C)(C)O)ncc(OC3CCNCC3)c21
4.47%

FYI, the data here is from ChEMBL document CHEMBL1961873.
